# Target under test: T1, SARS-CoV2 Spike ecto foldon Trimer expressed with a C-terminal myc-myc-hexahistidine (SARS-CoV-2, UniProt P0DTC2 14-1213)
# T1 construct: extracellular domain
# Protocol notes: SPR Biacore, mAb captured by anti-hFc, 25C
Property: log10(t½) (log10 of the value in h)
log10 t½, h

Some binders with known log10(t½) results, for comparison:
INSERT INTO results (binder, property, reported_value) VALUES
  ('mAb14294 (antibody, V domains shown) VH: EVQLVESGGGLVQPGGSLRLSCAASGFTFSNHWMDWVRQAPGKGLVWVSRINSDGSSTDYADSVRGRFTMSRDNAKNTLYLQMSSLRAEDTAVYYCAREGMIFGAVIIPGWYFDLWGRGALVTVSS VL: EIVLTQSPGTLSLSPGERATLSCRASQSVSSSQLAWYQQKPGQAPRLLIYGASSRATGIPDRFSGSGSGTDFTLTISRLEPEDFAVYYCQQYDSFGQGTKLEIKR', 'log10(t½)', 0.92),
  ('mAb13457 (antibody, V domains shown) VH: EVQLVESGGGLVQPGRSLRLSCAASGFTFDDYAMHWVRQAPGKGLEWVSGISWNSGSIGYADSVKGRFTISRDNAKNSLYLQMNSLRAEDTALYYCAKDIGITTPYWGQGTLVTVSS VL: AIQMTQSPSSLSASVGDRVTITCRASQDIRNDLGWYQQKPGKAPKLLIYSASSLQTGVPSRFSGSGSGTDFTLTISSLHPEDFATYYCLQDYDYTWTFGQGTKVEIKR', 'log10(t½)', 0.54),
  ('mAb14257 (antibody, V domains shown) VH: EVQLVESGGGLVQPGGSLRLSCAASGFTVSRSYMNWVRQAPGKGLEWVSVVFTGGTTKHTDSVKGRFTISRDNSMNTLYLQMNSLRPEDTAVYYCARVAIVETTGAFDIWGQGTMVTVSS VL: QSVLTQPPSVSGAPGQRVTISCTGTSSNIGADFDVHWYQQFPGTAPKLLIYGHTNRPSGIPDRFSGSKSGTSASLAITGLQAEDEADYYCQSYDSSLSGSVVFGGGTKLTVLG', 'log10(t½)', 0.26);

Q: Recorded log10(t½) for mAb14285 (antibody, V domains shown) VH: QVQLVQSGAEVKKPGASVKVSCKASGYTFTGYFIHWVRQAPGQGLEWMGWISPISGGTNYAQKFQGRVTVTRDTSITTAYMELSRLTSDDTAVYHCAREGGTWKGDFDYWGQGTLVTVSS VL: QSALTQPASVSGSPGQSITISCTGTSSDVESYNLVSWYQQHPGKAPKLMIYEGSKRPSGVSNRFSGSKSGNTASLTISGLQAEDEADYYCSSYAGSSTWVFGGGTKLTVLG , please?
Ans: 0.68

Q: Recorded log10(t½) for mAb15165 (antibody, V domains shown) VH: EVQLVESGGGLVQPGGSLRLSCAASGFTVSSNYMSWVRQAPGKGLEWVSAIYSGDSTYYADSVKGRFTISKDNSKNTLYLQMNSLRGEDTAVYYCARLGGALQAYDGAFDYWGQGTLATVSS VL: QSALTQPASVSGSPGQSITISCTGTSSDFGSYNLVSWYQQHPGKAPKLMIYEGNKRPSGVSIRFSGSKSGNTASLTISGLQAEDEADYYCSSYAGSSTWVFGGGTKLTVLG , please?
Ans: 1.25

Q: Recorded log10(t½) for mAb15166 (antibody, V domains shown) VH: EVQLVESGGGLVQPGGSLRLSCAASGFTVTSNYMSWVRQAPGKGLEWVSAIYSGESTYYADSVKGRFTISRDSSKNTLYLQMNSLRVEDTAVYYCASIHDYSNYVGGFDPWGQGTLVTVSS VL: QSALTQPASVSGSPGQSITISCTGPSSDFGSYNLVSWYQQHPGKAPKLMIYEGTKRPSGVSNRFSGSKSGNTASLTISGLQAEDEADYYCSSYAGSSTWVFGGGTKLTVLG , please?
Ans: 0.04

Q: Recorded log10(t½) for mAb15160 (antibody, V domains shown) VH: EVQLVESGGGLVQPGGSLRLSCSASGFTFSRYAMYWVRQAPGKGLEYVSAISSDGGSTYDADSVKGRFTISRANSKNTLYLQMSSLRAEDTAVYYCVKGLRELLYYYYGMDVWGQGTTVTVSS VL: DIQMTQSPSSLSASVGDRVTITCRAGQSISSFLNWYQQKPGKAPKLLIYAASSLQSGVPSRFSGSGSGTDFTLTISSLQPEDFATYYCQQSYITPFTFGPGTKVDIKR , please?
Ans: 0.79

Q: Recorded log10(t½) for mAb14280 (antibody, V domains shown) VH: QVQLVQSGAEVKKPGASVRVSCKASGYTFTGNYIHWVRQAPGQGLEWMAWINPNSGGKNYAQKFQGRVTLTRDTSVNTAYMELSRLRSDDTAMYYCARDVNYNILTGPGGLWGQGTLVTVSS VL: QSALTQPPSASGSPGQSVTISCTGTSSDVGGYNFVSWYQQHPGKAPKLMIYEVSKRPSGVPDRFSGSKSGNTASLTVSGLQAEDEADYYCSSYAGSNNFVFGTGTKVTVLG , please?
Ans: 0.85

Q: Recorded log10(t½) for mAb15163 (antibody, V domains shown) VH: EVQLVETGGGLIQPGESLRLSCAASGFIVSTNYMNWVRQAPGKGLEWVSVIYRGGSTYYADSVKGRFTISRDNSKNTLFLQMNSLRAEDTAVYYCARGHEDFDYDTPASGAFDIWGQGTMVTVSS VL: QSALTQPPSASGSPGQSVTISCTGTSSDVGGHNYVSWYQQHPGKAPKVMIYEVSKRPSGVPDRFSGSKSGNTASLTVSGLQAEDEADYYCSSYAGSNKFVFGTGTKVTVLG , please?
Ans: 1.22

Q: Recorded log10(t½) for mAb14230 (antibody, V domains shown) VH: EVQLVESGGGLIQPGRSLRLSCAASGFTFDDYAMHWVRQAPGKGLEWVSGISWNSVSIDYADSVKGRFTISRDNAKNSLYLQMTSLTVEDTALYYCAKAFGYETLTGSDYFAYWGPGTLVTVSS VL: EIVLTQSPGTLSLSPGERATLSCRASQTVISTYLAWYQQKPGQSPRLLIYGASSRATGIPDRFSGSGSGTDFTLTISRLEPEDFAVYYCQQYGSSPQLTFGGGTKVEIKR , please?
Ans: 0.50

Q: Recorded log10(t½) for mAb15158 (antibody, V domains shown) VH: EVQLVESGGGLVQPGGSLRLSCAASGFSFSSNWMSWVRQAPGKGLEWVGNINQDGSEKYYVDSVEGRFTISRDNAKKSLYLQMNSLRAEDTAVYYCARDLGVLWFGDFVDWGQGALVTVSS VL: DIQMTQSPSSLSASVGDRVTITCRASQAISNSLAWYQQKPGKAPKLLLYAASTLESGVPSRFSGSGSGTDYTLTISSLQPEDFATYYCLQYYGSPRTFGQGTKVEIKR , please?
Ans: 1.14
